Biological target: Monofunctional C1-tetrahydrofolate synthase, mitochondrial (Homo sapiens)
Sequence (Q6UB35 whole entry): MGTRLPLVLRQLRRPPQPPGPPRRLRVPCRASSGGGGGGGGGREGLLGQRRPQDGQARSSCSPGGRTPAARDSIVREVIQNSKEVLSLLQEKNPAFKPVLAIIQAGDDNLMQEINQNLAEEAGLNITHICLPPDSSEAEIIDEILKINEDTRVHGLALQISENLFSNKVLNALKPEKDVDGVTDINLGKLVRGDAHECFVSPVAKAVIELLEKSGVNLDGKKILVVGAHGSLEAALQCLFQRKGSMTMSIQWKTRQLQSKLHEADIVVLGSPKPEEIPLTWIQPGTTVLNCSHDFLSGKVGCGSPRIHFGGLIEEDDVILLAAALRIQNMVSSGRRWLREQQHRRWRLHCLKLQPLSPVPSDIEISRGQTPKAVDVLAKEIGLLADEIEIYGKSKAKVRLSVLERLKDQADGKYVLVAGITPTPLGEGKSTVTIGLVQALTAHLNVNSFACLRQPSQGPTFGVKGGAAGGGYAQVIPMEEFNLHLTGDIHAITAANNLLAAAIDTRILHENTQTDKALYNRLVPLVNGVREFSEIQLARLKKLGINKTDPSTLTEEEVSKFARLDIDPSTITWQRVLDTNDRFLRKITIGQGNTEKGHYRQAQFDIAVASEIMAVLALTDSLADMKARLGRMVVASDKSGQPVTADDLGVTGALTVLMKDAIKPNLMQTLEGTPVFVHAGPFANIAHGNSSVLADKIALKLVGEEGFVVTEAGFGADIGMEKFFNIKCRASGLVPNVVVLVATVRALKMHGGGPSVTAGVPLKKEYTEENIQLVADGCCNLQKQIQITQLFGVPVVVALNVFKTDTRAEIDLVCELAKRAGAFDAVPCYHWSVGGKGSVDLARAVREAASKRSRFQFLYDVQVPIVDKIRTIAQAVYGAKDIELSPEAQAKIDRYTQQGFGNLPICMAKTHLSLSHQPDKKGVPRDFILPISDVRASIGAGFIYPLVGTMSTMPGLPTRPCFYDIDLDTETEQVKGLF
Experiment: Binding affinity to FTHFS (unknown origin) expressed in Escherichia coli BL21 (DE3) using IPTG as […] assessed as dissociation constant by MST assay
Reported Kd is given for each of the following substances.
measured_metric: Kd (µM)

INSERT INTO assay_data (substance, measured_metric, measured) VALUES
  ('H-RRRLARRLIFFIRRAW-NH2', 'Kd', 3.68),
  ('H-LARVARRVIRFIRRAW-NH2', 'Kd', 2.24);

----------
Experiment: Hemolytic activity in mouse RBC assessed as hemolysis at 320 uM incubated for 1 hrs by spectrophotometric analysis relative to control
Type: toxicity, cell-based, Erythrocyte
Details: mouse red blood cells (erythrocytes), read-out: %max
measured_metric: hemolysis at 1 h, 320 µM

INSERT INTO assay_data (substance, measured_metric, measured) VALUES
  ('H-LARVARRVIRFIRRAW-NH2', 'hemolysis at 1 h, 320 µM', '8.58%'),
  ('H-RRFFVRRVFFRRRRFF-OH', 'hemolysis at 1 h, 320 µM', '30.1%'),
  ('H-RARVAVRVIRFLYRAW-NH2', 'hemolysis at 1 h, 320 µM', '9.34%'),
  ('H-LRPLARRPIRRIRRAW-NH2', 'hemolysis at 1 h, 320 µM', '8.74%'),
  ('H-KARVSVKVTASLSKAW-NH2', 'hemolysis at 1 h, 320 µM', '7.57%'),
  ('H-RRRVARRVIRFIRRAW-NH2', 'hemolysis at 1 h, 320 µM', '10.2%'),
  ('H-RRWWWRRWWWRRRRWW-NH2', 'hemolysis at 1 h, 320 µM', '51.3%'),
  ('H-LFRVVRRVVRFIRRAA-NH2', 'hemolysis at 1 h, 320 µM', '7.53%'),
  ('H-KASVSVKVTASLSKAWTNSQ-NH2', 'hemolysis at 1 h, 320 µM', '6.24%'),
  ('H-WRWWRRRRWWRWRRWW-NH2', 'hemolysis at 1 h, 320 µM', '40.3%'),
  ('H-RRWIARRAIWRRRRWW-NH2', 'hemolysis at 1 h, 320 µM', '17.2%'),
  ('H-RRRLARRLIFFIRRAW-NH2', 'hemolysis at 1 h, 320 µM', '8.97%'),
  ('H-KARVAVKVIRFLYKAW-NH2', 'hemolysis at 1 h, 320 µM', '6.36%');
